# Assay Name: method code SF-HPLC, from PMID: 2608704
# Run Parameters: pH 1.0
Readout Label: logD

Sample answers from the record:
O=C(O)CCC1=NS(=O)(=O)c2cc(Cl)cc(Cl)c2N1 1.04
O=C(O)CCCC1=NS(=O)(=O)c2cc(Cl)cc(Cl)c2N1 1.22
O=C(O)CCSC1=NS(=O)(=O)c2cc(Br)cc(Br)c2N1 2.04
O=C(O)CCCC1=NS(=O)(=O)c2cc(Br)cc(Br)c2N1 1.51
O=C(O)CSC1=NS(=O)(=O)c2ccccc2N1 0.18
O=C(O)CCSC1=NS(=O)(=O)c2ccc(C(F)(F)F)cc2N1 1.96
COc1ccc2c(c1)NC(SCCC(=O)O)=NS2(=O)=O 0.96
O=C(O)CSC1=NS(=O)(=O)c2cc(Br)cc(Br)c2N1 1.16

[a] O=C(O)CSC1=NS(=O)(=O)c2cc(Cl)cc(Cl)c2N1
[b] O=C(O)CCSC1=NS(=O)(=O)c2cc(Br)ccc2N1
Sorting ascending by logD, which comes first: a or b ? Selection: enter the item's label. a
(a: 1.09, b: 1.77)

[1] Cc1ccc2c(c1)NC(SCCC(=O)O)=NS2(=O)=O
[2] O=C(O)CCSC1=NS(=O)(=O)c2ccccc2N1
Sorting ascending by logD, which comes first: 1 or 2 ? Selection: enter the item's label. 2
(2: 0.66, 1: 1.16)

[a] COc1ccc2c(c1)NC(SCC(=O)O)=NS2(=O)=O
[b] O=C(O)CSC1=NS(=O)(=O)c2cc(Cl)ccc2N1
[c] O=C(O)CCC1=NS(=O)(=O)c2cc(Br)cc(Br)c2N1
Put the compounds in ascending order of logD. A ranking is expressed here by listing the labels in the requested order. a, b, c
(a: 0.37, b: 0.72, c: 1.35)
